Assignment: determine reported IC50; SEAP reporter (OD 620), HEK-BLUE IL-33/IL-1beta cells, 10 pM hIL-33 for the given binders.
Biological target: T1, human IL-33 (R&D Systems, #3625-IL-010/CF) (human, UniProt O95760 112-270)
T1 sequence (looked up): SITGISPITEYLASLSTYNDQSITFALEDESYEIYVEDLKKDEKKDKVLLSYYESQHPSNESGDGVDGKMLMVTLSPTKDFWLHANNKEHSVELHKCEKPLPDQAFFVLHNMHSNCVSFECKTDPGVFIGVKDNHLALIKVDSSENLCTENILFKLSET
Assay: cell-based or functional assay
Numbers only, in M.

1. H4H9659P (antibody, IgG4, V domains shown, also called RG7) VH: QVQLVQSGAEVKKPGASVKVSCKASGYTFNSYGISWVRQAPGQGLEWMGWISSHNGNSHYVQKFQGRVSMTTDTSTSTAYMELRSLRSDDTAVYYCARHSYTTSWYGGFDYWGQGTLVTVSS VL: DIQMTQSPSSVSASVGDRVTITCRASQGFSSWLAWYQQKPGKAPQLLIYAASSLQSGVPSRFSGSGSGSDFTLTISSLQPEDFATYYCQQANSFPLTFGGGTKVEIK : 9.2e-11
2. H1M9559N (antibody, IgG1, V domains shown, also called RG1) VH: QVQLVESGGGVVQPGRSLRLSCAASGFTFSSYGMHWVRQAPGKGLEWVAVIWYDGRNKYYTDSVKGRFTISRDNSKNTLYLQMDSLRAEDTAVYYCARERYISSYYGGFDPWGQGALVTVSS VL: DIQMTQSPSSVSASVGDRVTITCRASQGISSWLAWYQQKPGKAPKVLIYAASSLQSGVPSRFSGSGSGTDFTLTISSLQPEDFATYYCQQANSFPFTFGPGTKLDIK : 9.5e-09
3. H4H9640P (antibody, IgG4, V domains shown, also called RG6) VH: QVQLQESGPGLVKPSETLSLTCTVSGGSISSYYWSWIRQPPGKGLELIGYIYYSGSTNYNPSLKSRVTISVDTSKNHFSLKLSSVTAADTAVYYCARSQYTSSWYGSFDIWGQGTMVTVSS VL: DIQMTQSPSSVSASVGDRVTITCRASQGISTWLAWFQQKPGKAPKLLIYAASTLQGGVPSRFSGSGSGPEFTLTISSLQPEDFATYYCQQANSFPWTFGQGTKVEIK : 6.1e-10

// below: IC50; SEAP reporter (OD 620), HEK-BLUE IL-33/IL-1beta cells, 10 pM hIL-33 requested for another binder
Input line: In one line, give reported IC50; SEAP reporter (OD 620), HEK-BLUE IL-33/IL-1beta cells, 10 pM hIL-33 of the entry H1M9568N (antibody, IgG1, V domains shown, also called RG3) VH: QVLLVQSGAEVKKPGATVKVSCKASGSTFTGYYMHWVRQAPGQGLEWMGWINPNNGGTNYAQKFQGRVTMTRDTSISTAYMELSRLRSDDTAVYYCARELRYNWKSWGQGTLVTVSS VL: EIVLTQSPGTLSLSPGERVTLSCRASQSVGRPYLAWYQQIPGQAPRLLIYGASSRATDIPDRFSGNGSGTDFTLTISRLEPEDFAVYYCQQYDNSPYTFGQGTRLEIK .
Output line: 1.1e-10
